target: Cellular tumor antigen p53 (Homo sapiens) (UniProt P04637); experiment: Primary qHTS for small molecule compounds that upregulate eGFP-tagged delta133p53alpha (in N-terminal) cells. (AID 2060322); settings: NCI-H358 eGFP-delta133p53alpha fluorescence, 24 h; hits give high values;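 further: cells pre-induced with doxycycline then dosed without doxycycline; 0% = DMSO vehicle and 100% = reference activator; nearly all actives have a fitted effect of over 75% in size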
Sequence (P04637 whole entry, looked up): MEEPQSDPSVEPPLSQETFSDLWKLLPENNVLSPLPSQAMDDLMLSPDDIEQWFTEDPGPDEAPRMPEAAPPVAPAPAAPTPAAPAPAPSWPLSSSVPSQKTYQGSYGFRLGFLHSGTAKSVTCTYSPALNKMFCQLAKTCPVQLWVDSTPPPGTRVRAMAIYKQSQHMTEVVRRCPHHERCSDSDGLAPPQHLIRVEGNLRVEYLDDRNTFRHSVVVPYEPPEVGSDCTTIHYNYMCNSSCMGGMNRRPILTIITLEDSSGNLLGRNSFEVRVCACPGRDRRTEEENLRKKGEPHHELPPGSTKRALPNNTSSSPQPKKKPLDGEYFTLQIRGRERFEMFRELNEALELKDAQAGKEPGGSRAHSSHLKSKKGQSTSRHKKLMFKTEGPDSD
Inconclusive results are not listed.
Measured attribute: activation (%)
Quick note: give the figure in %, leave out the unit.

C[N+]1(C)[C@@H]2CC(OC(=O)[C@H](CO)c3ccccc3)C[C@H]1[C@@H]1O[C@@H]12 (stereo not given in full)	-7.53
C=C1C(O)CC2C(C(=O)O)=COC(O[C@@H]3O[C@H](COC(=O)c4ccc(O)cc4)[C@@H](O)[C@H](O)[C@H]3O)C12 (stereo not given in full)	-6.11
O=[N+]([O-])c1cn2c(n1)OCC(OCc1ccc(OC(F)(F)F)cc1)C2 (stereo not given)	-10
N[C@H](CO)C(=O)O	9.85
Cc1c[nH]c2ccccc12	17.6

(Q) Quick check: activation on Cellular tumor antigen p53 (Homo sapiens) (UniProt P04637), item CN(CCCNC(=O)c1ccc2nc3c(c(Cl)c2c1)CCCC3)Cc1ccccc1 ?
(A) 20.5

(Q) Quick check: activation on Cellular tumor antigen p53 (Homo sapiens) (UniProt P04637), item CN(C)c1ccc2cc(C(=O)N[C@@H](CCCN=C(N)CCl)C(=O)NCc3ccccc3)ccc2c1 ?
(A) 2.27

(Q) Quick check: activation on Cellular tumor antigen p53 (Homo sapiens) (UniProt P04637), item N#CC(c1ccc(Cl)cc1)c1c(Cl)cc(-n2ncc(=O)[nH]c2=O)cc1Cl (stereo not given) ?
(A) -23

(Q) Quick check: activation on Cellular tumor antigen p53 (Homo sapiens) (UniProt P04637), item C=CC(C)(C)C12Nc3c(ccc4c3OC(C)(C)C=C4)C1(O)CC1C(=O)N3CCCC3C(=O)N12 (stereo not given) ?
(A) -0.763

(Q) Quick check: activation on Cellular tumor antigen p53 (Homo sapiens) (UniProt P04637), item CC(C)C[C@H](NC(=O)[C@@H](O)[C@H](N)Cc1ccccc1)C(=O)O ?
(A) -10.8

* * *

biological target: Cellular tumor antigen p53 (Homo sapiens) (UniProt P04637); test: Primary qHTS for small molecule compounds that upregulate eGFP-tagged delta133p53alpha (in N-terminal) cells. (AID 2060322); settings: NCI-H358 eGFP-delta133p53alpha fluorescence, 24 h; hits give high values;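 further: cells pre-induced with doxycycline then dosed without doxycycline; 0% = DMSO vehicle and 100% = reference activator; nearly all actives have a fitted effect of over 75% in size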
Inconclusive results are not listed.
Measured attribute: activation (%)
Quick note: give the figure in %, leave out the unit.

Please review the following examples before continuing.
C=C1C[C@]23C[C@H]1CC[C@H]2[C@@]1(C)CCC[C@@]2(C)C(=O)O[C@@H]([C@@H]3O)[C@@H]12	12.2
COc1cc(/C=C/C(=O)OC[C@H]2O[C@@H](OC3OC=C(C(=O)O)C4C(O)CC(C)(O)C34)[C@H](O)[C@@H](O)[C@@H]2O)cc(OC)c1O (stereo partly drawn)	-12.2
O=C(O)c1cn(C2CC2)c2cc(N3C[C@@H]4C[C@H]3CN4)c(F)cc2c1=O	11.7
O=C(O)Cn1c(=O)n(Cc2ccc(Br)cc2F)c(=O)c2ccc(Cl)cc21	-5.08
O=C(Nc1ccncc1)c1cc([N+](=O)[O-])ccc1Cl	6.63

(Q) # lookup: activation of C=C1CC[C@@H]2[C@](C)(CO[C@@H]3O[C@H](CO)[C@@H](O)[C@H](O)[C@H]3O)CCC[C@@]2(C)[C@@H]1CCC1=CCOC1=O
(A) 10.7

(Q) # lookup: activation of CC1=CC(=O)CC(C)(C)C1CCC(C)O[C@@H]1O[C@H](CO)[C@@H](O)[C@H](O)[C@H]1O (stereo partly drawn)
(A) -3.57

(Q) # lookup: activation of CCNC(=O)Nc1ccc(Oc2ncnc(N)c2C=NOC)cc1Cl
(A) -10.2

* * *

experiment: BET inhibitor-based combinations targeting novel dependencies in MECOM-rearranged (r) AML: SET-2 cell line (AID 2202231); conditions: SET-2 AML cells viability, CellTiter-Glo luminescence, 48 h; hits give low values, concentration not given here;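 further: plate controls were DMSO treated cells for no effect and wells without cells for full effect; nearly all actives have a fitted effect of over 35% in size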
Records with an inconclusive call do not appear.
Parameter viability: see the listing below.
Quick note: give the figure in %, leave out the unit.

Please review the following examples before continuing.
COCCCc1sc(-c2ccccc2)nc1C(=O)Nc1ccccc1-c1nc2cc(CN3CCCC3)cnc2s1	121
CN(C)C(=O)[C@H](O)[C@H](Cc1ccccc1)NC(=O)c1cc2cc(Cl)ccc2[nH]1	95.3
CNC(=O)[C@H](Cc1ccccc1)NC(=O)[C@H](CC(C)C)[C@H](CSc1cccs1)C(=O)NO	98.9
CC(C)(Sc1ccc(CCN(CCCCC2CCCCC2)C(=O)NC2CCCCC2)cc1)C(=O)O	118
Cc1ccccc1C(C(=O)NC1CCCCC1)N(C(=O)Cn1ccnc1C)c1cccc(F)c1 (stereo not given)	116
Nc1cc(C(Cl)=C(Cl)Cl)c(S(N)(=O)=O)cc1S(N)(=O)=O	111
CCCCNc1cc(C(=O)O)cc(S(N)(=O)=O)c1Oc1ccccc1	115
COc1ccc(CC2=NN3C([C@@H](CCc4ccccc4)[C@@H](C)O)=NC(C)C3C(=O)N2)cc1OC (stereo not given in full)	101
O=C(O)C(=O)Nc1cccc(-c2nn[nH]n2)c1	121

(Q) # lookup: viability of c1cc(CN2CCCNCCNCCCNCC2)ccc1CN1CCCNCCNCCCNCC1
(A) 87.5

* * *

assay: BET inhibitor-based combinations targeting novel dependencies in MECOM-rearranged (r) AML: MV-4-11 cell line (AID 2202233); conditions: MV-4-11 AML viability, CellTiter-Glo luminescence, 48 h; series mostly up to 46 µM; further: nearly all actives have a fitted effect of over 45% in size
Inconclusive results are not listed. Activity calls are given as the source filed them. Calls follow the shape of the dose curve; as a rule, active = well fitted inhibition curve with a large enough effect; inconclusive = small, poorly fitted or top-dose-only effect; inactive = no such curve, though single readings can be large or run the other way.
Your response should consist of one outcome taken from active, inactive

Worked examples, 5 compounds total:
COc1cc(Nc2ncc3c(n2)-c2ccc(Cl)cc2C(c2c(F)cccc2OC)=NC3)ccc1C(=O)O	active
Cc1nn(Cc2ccccc2Cl)c(C)c1CN(C)CC(O)COc1ccc(Cl)cc1 (stereo unspecified)	active
CC(C)(C)OC(=O)CN(Cc1ccc(Cl)cc1)Cc1ccc([N+](=O)[O-])s1	active
O=NN(CCCl)C(=O)NCCCl	inactive
C1=C/COCc2cc(ccc2OCCN2CCCC2)Nc2nccc(n2)-c2cccc(c2)COC/1	active

Now take the following compound into account.
(Q) // param item: O=c1c(-n2ccnn2)c[nH]n1-c1cc(N2CCOCC2)ncn1 ; yields the recorded call
(A) active

* * *

experiment: BET inhibitor-based combinations targeting novel dependencies in MECOM-rearranged (r) AML: OCI-AML3 cell line (AID 2202232); conditions: CellTiter-Glo luminescence, 48 h; OCI-AML3 viability; series mostly up to 46 µM; further: nearly all actives have a fitted effect of over 35% in size
Inconclusive results are not listed. Active and inactive are the calls of the source. Calls follow the shape of the dose curve; as a rule, active = well fitted inhibition curve with a large enough effect; inconclusive = small, poorly fitted or top-dose-only effect; inactive = no such curve, though single readings can be large or run the other way.
Your response should consist of one outcome taken from class 1 (active), class 0 (inactive)

Worked examples, 8 molecules total:
C1=C/COCc2cc(ccc2OCCN2CCCC2)Nc2nccc(n2)-c2cccc(c2)COC/1	class 1
CN1CCCN=C1/C=C/c1cccs1	class 0
COc1cc2c(Oc3ccc(NC(=O)C4(C(=O)Nc5ccc(F)cc5)CC4)cc3F)ccnc2cc1OCCCN1CCOCC1	class 1
CN1CCN(C2CCN(C(=O)Nc3cc(Oc4ccc(NC(=O)C5(C(=O)Nc6ccc(F)cc6)CC5)c(F)c4)ccn3)CC2)CC1	class 1
Fc1ccc2[nH]ccc2c1-c1nc(N2CCOCC2)c2sc(CN3CCN(CC4CC4)CC3)cc2n1	class 1
COc1nccc(-c2c(-c3ccc(F)cc3)ncn2C2CCC(O)CC2)n1 (centres undefined)	class 1
c1ccc2c(Oc3nc(Nc4ccc(N5CCOCC5)cc4)c4ncn(C5CCCCC5)c4n3)cccc2c1	class 0
COc1ccc(S(=O)(=O)Nc2cc(-c3c(O)ccc4ccccc34)c(O)c3ccccc23)cc1	class 1

Now take the following molecule into account.
(Q) // param item: NCC1CCN(c2nccc(-c3ccc4ccccc4c3)n2)CC1 ; yields the recorded call
(A) class 1

* * *

target: Cellular tumor antigen p53 (Homo sapiens) (UniProt P04637); experiment: Primary qHTS for small molecule compounds that upregulate eGFP-tagged delta133p53alpha (in N-terminal) cells. (AID 2060322); details: NCI-H358 eGFP-delta133p53alpha fluorescence, 24 h; hits give high values;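 further: cells pre-induced with doxycycline then dosed without doxycycline; 0% = DMSO vehicle and 100% = reference activator; nearly all actives have a fitted effect of over 75% in size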
Results filed as inconclusive are left out. The source made the active and inactive calls. Calls follow the shape of the dose curve; as a rule, active = well fitted activation curve with a large enough effect; inconclusive = small, poorly fitted or top-dose-only effect; inactive = no such curve, though single readings can be large or run the other way.
Measured attribute: activation

Please review the following examples before continuing.
COc1cc(N)c(Cl)cc1C(=O)NC[C@@H]1CCN2CCC[C@@H]12	-3.34% (inactive)
CCc1c(C(=O)Nc2cc(S(=O)(=O)N(CC)CC)ccc2O)[nH]c(C)c1C(C)=O	-38% (inactive)
CCNC(=O)c1cc2c(-c3cc(OCCN4CCCC4)c(Cl)cc3Cl)nc(N)nc2s1	-12.6% (inactive)
COc1cc(NC(=O)c2cc(C3CC3)on2)c(OC)cc1Cl	-12.4% (inactive)
C=C1C(=O)O[C@@H]2C[C@]3(C)[C@@H](CCC(C)=O)[C@@H]3C[C@H]12	5.36% (inactive)

(Q) # lookup: activation of Nc1nc(OCc2cc(Br)cs2)c2[nH]cnc2n1
(A) -5% (inactive)

(Q) # lookup: activation of c1ccc(C2CN3CCSC3=N2)cc1 (stereo not drawn)
(A) 27% (inactive)

(Q) # lookup: activation of CC(=O)N(c1onc(C)c1C)S(=O)(=O)c1ccc(N)cc1
(A) -0.565% (inactive)

(Q) # lookup: activation of COc1cccc2c1C(=O)c1c(O)c3c(c(O)c1C2=O)C[C@@](O)(C(=O)CO)C[C@@H]3O[C@H]1C[C@H](N)[C@H](OC2CCCCO2)[C@H](C)O1 (stereo partly drawn)
(A) 3.12% (inactive)

(Q) # lookup: activation of CCOc1cc(OCC)c(C(=O)CCC(=O)O)cc1OCC
(A) -15.3% (inactive)

(Q) # lookup: activation of O=c1[nH]ccc2c(O)cccc12
(A) -33.7% (inactive)

(Q) # lookup: activation of C=C(C)[C@@H]1CC[C@](C)(O)[C@@H](OC(=O)c2ccccc2)C1
(A) -15.2% (inactive)

(Q) # lookup: activation of COc1c(C)c2c(c(O)c1CC=C(C)CCC(=O)OCCN1CCOCC1)C(=O)OC2
(A) 13.4% (inactive)

(Q) # lookup: activation of O=C1O[C@H]([C@@H](O)CO)C(O)=C1O
(A) -9.6% (inactive)

(Q) # lookup: activation of CC1(C)CCCC2(C)C1CC=C1C(=O)OC(O)C12O (stereo not drawn)
(A) -6.11% (inactive)

(Q) # lookup: activation of CCCc1c(-c2ccc(O)cc2)nn(-c2ccc(O)cc2)c1-c1ccc(O)cc1
(A) -36.4% (inactive)

(Q) # lookup: activation of CCC(C)CNCC(=O)N1CCC2SC=CC2C1COc1cccc(C)c1 (stereo not drawn)
(A) 17.9% (inactive)

(Q) # lookup: activation of CCOC(=O)CSc1nc2c(sc3ccccc32)c(=O)n1CCCN1CCCC1
(A) 2.86% (inactive)

(Q) # lookup: activation of Nc1nc(Cl)nc2c1ncn2[C@@H]1O[C@H](CO)[C@@H](O)[C@H]1O
(A) -6.39% (inactive)

(Q) # lookup: activation of Cn1c2cc(S(C)=O)sc2c2cnn(Cc3cccc(N)c3)c(=O)c21 (stereo not drawn)
(A) 15.5% (inactive)
